// EC50 lookup, one value per entry
# Procedure text: Inhibition of NS5A L31M mutant in HCV genotype 2a J6 (M31) infected in human HuH7 replicon cells assessed as reduction in viral replication after 3 days by luciferase reporter gene assay
Report the value in nM with no unit label.

Some solved entries appear below for comparison.
COC[C@H]1C[C@@H](c2nc3ccc4cc5c(cc4c3[nH]2)OCc2cc(-c3cnc([C@@H]4C[C@H](C)CN4C(=O)[C@@H](NC(=O)OC)C(C)C)[nH]3)ccc2-5)N(C(=O)[C@@H](NC(=O)OC)C(C)C)C1 ... 0.106
COC[C@H]1C[C@@H](c2ncc(-c3ccc4c(c3)COc3cc5c(ccc6nc([C@@H]7C[C@@H]8C[C@H]8N7C(=O)[C@@H](NC(=O)OC)C(C)C)[nH]c65)cc3-4)[nH]2)N(C(=O)[C@H](NC(=O)OC)c2ccccc2)C1 ... 0.021
COC(=O)N[C@H](C(=O)N1CCC[C@H]1c1ncc(-c2cc3c4c(c2)COc2cc(-c5cnc([C@@H]6CCCN6C(=O)[C@@H](NC(=O)OC)C(C)C)[nH]5)cc(c2-4)CC3)[nH]1)C(C)C ... 23.7

What value of measured EC50 is listed for COC(=O)N[C@H](C(=O)N1CCC[C@H]1c1ncc(-c2ccc3c(c2)COc2cc4c(ccc5nc([C@@H]6CCCN6C(=O)[C@@H](NC(=O)OC)C(C)C)[nH]c54)cc2-3)[nH]1)C(C)C ?
1.16

What value of measured EC50 is listed for COC[C@H]1C[C@@H](c2nc3ccc4cc5c(cc4c3[nH]2)OCc2cc(-c3cnc([C@@H]4CCCN4C(=O)[C@@H](NC(=O)OC)C(C)C)[nH]3)ccc2-5)N(C(=O)[C@@H](NC(=O)OC)C(C)C)C1 ?
0.28

* * *

# Procedure text: Inhibition of NS5A in HCV genotype 1a H77 infected in human HuH7 replicon cells assessed as reduction in viral replication after 3 days by luciferase reporter gene assay
Criterion: EC50 strictly less than 40 pM. Met: YES. Not met: NO.

COC(=O)N[C@H](C(=O)N1CCC[C@H]1c1nc2ccc3cc4c(cc3c2[nH]1)OCc1cc(-c2cnc([C@@H]3CCCN3C(=O)[C@H](NC(=O)OC)c3ccccc3)[nH]2)ccc1-4)C(C)C ... YES
COC(=O)N[C@H](C(=O)N1CCC[C@H]1c1ncc(-c2cc3c4c(c2)CCc2cc(-c5cnc([C@@H]6CCCN6C(=O)[C@@H](NC(=O)OC)C(C)C)[nH]5)cc(c2-4)CC3)[nH]1)C(C)C ... NO
CCO[C@H]1C[C@@H](c2nc3ccc4cc5c(cc4c3[nH]2)OCc2cc(-c3cnc([C@@H]4CCCN4C(=O)[C@@H](NC(=O)OC)C(C)C)[nH]3)ccc2-5)N(C(=O)[C@@H](NC(=O)OC)C(C)C)C1 ... YES
COC[C@H]1C[C@@H](c2nc3ccc4cc5c(cc4c3[nH]2)OCc2cc(-c3cnc([C@@H]4CC[C@H](C)N4C(=O)[C@@H](NC(=O)OC)C(C)C)[nH]3)ccc2-5)N(C(=O)[C@@H](NC(=O)OC)C(C)C)C1 ... YES

A record lists COC(=O)N[C@H](C(=O)N1CCC[C@H]1c1ncc(-c2ccc3c4ccc(-c5cnc([C@@H]6CCCN6C(=O)[C@@H](NC(=O)OC)C(C)C)[nH]5)cc4c4ccccc4c3c2)[nH]1)C(C)C . Is its EC50 below 40 pM?
NO

* * *

# Procedure text: Inhibition of NS5A L31M mutant in HCV genotype 2a J6 (M31) infected in human HuH7 replicon cells assessed as reduction in viral replication after 3 days by luciferase reporter gene assay
Measurement kind: EC50 (pM)
Report the value in pM with no unit label.

COC[C@H]1C[C@@H](c2ncc(-c3ccc4c(c3)COc3cc5c(ccc6nc([C@@H]7C[C@H](COC)CN7C(=O)[C@@H](NC(=O)OC)C(C)C)[nH]c65)cc3-4)[nH]2)N(C(=O)[C@@H](NC(=O)OC)C(C)C)C1 ... 61
COC(=O)N[C@@H](C(=O)N1C[C@@H](C)C[C@H]1c1ncc(-c2cc3c4c(c2)OCc2cc(-c5cnc([C@@H]6C[C@H](C)CN6C(=O)[C@H](NC(=O)OC)c6ccccc6)[nH]5)cc(c2-4)OC3)[nH]1)c1ccccc1 ... 58
COC(=O)N[C@H](C(=O)N1[C@@H](C)CC[C@H]1c1nc2ccc3cc4c(cc3c2[nH]1)OCc1cc(-c2cnc([C@@H]3C[C@H](C)CN3C(=O)[C@H](NC(=O)OC)c3ccccc3)[nH]2)ccc1-4)C(C)C ... 53

What value of measured EC50 is listed for COC(=O)N[C@H](C(=O)N1CCC[C@H]1c1ncc(-c2cc3c4c(c2)OCc2cc(-c5cnc([C@@H]6CCCN6C(=O)[C@H](NC(=O)OC)c6ccccc6)[nH]5)cc(c2-4)OC3)[nH]1)C(C)C ?
1820

What value of measured EC50 is listed for COC(=O)N[C@H](C(=O)N1CCC[C@H]1c1ncc(-c2cc3c4c(c2)OCc2cc(-c5cnc([C@@H]6CCCN6C(=O)[C@H](NC(=O)OC)c6ccccc6)[nH]5)cc(c2-4)OC3)[nH]1)C1CCOCC1 ?
280

What value of measured EC50 is listed for COC(=O)N[C@H](C(=O)N1CCC[C@H]1c1ncc(-c2cc3c4c(c2)OCc2cc(-c5cnc([C@@H]6CCCN6C(=O)[C@@H](NC(=O)OC)C6CCOCC6)[nH]5)cc(c2-4)OC3)[nH]1)C(C)C ?
1430

What value of measured EC50 is listed for COC[C@H]1C[C@@H](c2nc(-c3ccc4c(c3)COc3cc5c(ccc6nc([C@@H]7CC[C@H](C)N7C(=O)[C@@H](NC(=O)OC)C(C)C)[nH]c65)cc3-4)c[nH]2)N(C(=O)[C@H](NC(=O)OC)c2ccccc2)C1 [GS-5816] ?
16

* * *

// EC50 lookup, one value per entry
# Procedure text: Inhibition of NS5A in HCV genotype 2a JFH1 infected in human HuH7 replicon cells assessed as reduction in viral replication after 3 days by luciferase reporter gene assay

What value of measured EC50 is listed for COC[C@H]1C[C@@H](c2ncc(-c3ccc4c(c3)COc3cc5c(ccc6nc([C@@H]7C[C@H]8C[C@@H]8N7C(=O)[C@@H](NC(=O)OC)C(C)C)[nH]c65)cc3-4)[nH]2)N(C(=O)[C@H](NC(=O)OC)c2ccccc2)C1 ?
6 pM

What value of measured EC50 is listed for COC(=O)N[C@H](C(=O)N1CCC[C@H]1c1nc2ccc3cc4c(cc3c2[nH]1)OCc1cc(-c2cnc([C@@H]3CCCN3C(=O)[C@H](NC(=O)OC)c3ccccc3)[nH]2)ccc1-4)C(C)C ?
6 pM

What value of measured EC50 is listed for COC[C@H]1C[C@@H](c2ncc(-c3ccc4c(c3)COc3cc5c(ccc6nc([C@@H]7CCCN7C(=O)[C@@H](NC(=O)OC)C(C)C)[nH]c65)cc3-4)[nH]2)N(C(=O)[C@H](NC(=O)OC)c2ccccc2)C1 ?
6 pM

What value of measured EC50 is listed for COC(=O)N[C@@H](C(=O)N1C[C@@H](C)C[C@H]1c1ncc(-c2cc3c4c(c2)OCc2cc(-c5cnc([C@@H]6C[C@H](C)CN6C(=O)[C@H](NC(=O)OC)c6ccccc6)[nH]5)cc(c2-4)OC3)[nH]1)c1ccccc1 ?
5 pM

What value of measured EC50 is listed for COC(=O)N[C@H](C(=O)N1CC2(CC2)C[C@H]1c1nc(-c2ccc3c(c2)C(F)(F)c2cc(-c4ccc5[nH]c([C@@H]6[C@H]7CC[C@H](C7)N6C(=O)[C@@H](NC(=O)OC)C(C)C)nc5c4)ccc2-3)c[nH]1)C(C)C ?
21000 pM

What value of measured EC50 is listed for COC(=O)N[C@@H](C(=O)N1[C@@H](C)CC[C@H]1c1ncc(-c2cc3c4c(c2)OCc2cc(-c5cnc([C@@H]6CC[C@H](C)N6C(=O)[C@H](NC(=O)OC)c6ccccc6)[nH]5)cc(c2-4)OC3)[nH]1)c1ccccc1 ?
8 pM

What value of measured EC50 is listed for COC(=O)N[C@H](C(=O)N1[C@@H](C)CC[C@H]1c1nc2ccc3cc4c(cc3c2[nH]1)OCc1cc(-c2cnc([C@@H]3C[C@H](C)CN3C(=O)[C@H](NC(=O)OC)c3ccccc3)[nH]2)ccc1-4)C(C)C ?
4 pM

What value of measured EC50 is listed for COC[C@H]1C[C@@H](c2nc(-c3ccc4c(c3)COc3cc5c(ccc6nc([C@@H]7CC[C@H](C)N7C(=O)[C@@H](NC(=O)OC)C(C)C)[nH]c65)cc3-4)c[nH]2)N(C(=O)[C@H](NC(=O)OC)c2ccccc2)C1 ?
8 pM

What value of measured EC50 is listed for COC(=O)N[C@H](C(=O)N1C[C@@H](C)C[C@H]1c1nc2ccc3cc4c(cc3c2[nH]1)OCc1cc(-c2cnc([C@@H]3C[C@H](C)CN3C(=O)[C@H](NC(=O)OC)c3ccccc3)[nH]2)ccc1-4)C(C)C ?
18 pM
